# experimental system: T1, biotinylated human DLL3 protein expressed as a human IgG1 fusion protein (human, UniProt Q9NYJ7 27-492, limits assumed, biotinylated)
# T1 sequence: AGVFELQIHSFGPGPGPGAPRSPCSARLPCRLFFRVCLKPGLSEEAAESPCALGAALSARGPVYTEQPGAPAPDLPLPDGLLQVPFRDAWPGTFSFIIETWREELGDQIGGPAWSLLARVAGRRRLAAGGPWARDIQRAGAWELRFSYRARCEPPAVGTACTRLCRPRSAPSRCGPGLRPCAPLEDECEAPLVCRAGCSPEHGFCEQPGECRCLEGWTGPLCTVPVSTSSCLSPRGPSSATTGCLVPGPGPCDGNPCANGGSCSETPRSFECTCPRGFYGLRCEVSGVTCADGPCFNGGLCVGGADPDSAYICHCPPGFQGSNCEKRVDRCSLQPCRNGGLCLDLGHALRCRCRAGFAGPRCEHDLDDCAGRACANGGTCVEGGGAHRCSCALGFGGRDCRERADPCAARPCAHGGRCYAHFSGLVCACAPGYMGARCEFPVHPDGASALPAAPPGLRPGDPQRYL
# test method notes: Octet BLI, single 50 nM
Quick reference for Kd among some binders
Returns: string containing the numeric result and its unit.

Prompt line: Which Kd reading was recorded for the binder 4D08 anti-DLL3 trispecific protein (other, not shown: linker 1808, anti-albumin sdAb, linker 1808, anti-CD3 fragment, His6 1819) EVQLVESGGGLVQPGGSLTLSCAASGSSVNFLSMAWYRQAPGKKRELVAGISADGSTHYIDSVKGRFTISRDNAKNSVYLQMNSLRAEDTAVYYCYAYRWLTRYTYWGQGTLVTVSS ?
Response line: 5.9 nM

Prompt line: Which Kd reading was recorded for the binder 3C04 anti-DLL3 trispecific protein (other, not shown: linker 1808, anti-albumin sdAb, linker 1808, anti-CD3 fragment, His6 1819) EVQLVESGGGLVQPGGSLTLSCAASGSHVSFLSMAWYRQAPGKKRELVAGISADGPTDYIDSVKGRFTISRDNAKNSVYLQMNSLRAEDTAVYYCYAYRWDTRYTYWGQGTLVTVSS ?
Response line: 4.5 nM

Prompt line: Which Kd reading was recorded for the binder 4F04 anti-DLL3 trispecific protein (other, not shown: linker 1808, anti-albumin sdAb, linker 1808, anti-CD3 fragment, His6 1819) EVQLVESGGGLVQPGGSLTLSCAASRSSVSFLSMAWYRQAPGKKRELVAGISTDGSTDYIDSVKGRFTISRDNAKNSVYLQMNSLRAEDTAVYYCYAYRWLTRYTYWGQGTLVTVSS ?
Response line: 9.8 nM

Attention now turns to another entry.
Prompt line: Which Kd reading was recorded for the binder 1F09 anti-DLL3 trispecific protein (other, not shown: linker 1808, anti-albumin sdAb, linker 1808, anti-CD3 fragment, His6 1819) EVQLVESGGGLVQPGGSLTLSCVASGNTSSINAMGWYRRAPGKQRELVAGISSNGSKVYADSVKGRFTISRDNAKNSVYLQMNSLRAEDTAVYYCYYFRTVTGSSMRYWGQGTLVTVSS ?
Response line: 35 nM
